Test system: Pseudomonas
ASSAY_EXPLANATION: Antibacterial activity against Pseudomonas assessed as zone of inhibition; further: test concentration or dose not given here
Type: functional
PROPERTY_MEASURED: inhibition zone (IZ) (mm)

[[record]]
chemical_string = "O=c1cc(-c2nc3ccccc3[nH]2)c2cc(Cl)ccc2o1"
reported_result = 8

[[record]]
chemical_string = "Cc1ccc2oc(=O)cc(-c3nc4ccccc4[nH]3)c2c1"
reported_result = 4.1

[[record]]
chemical_string = "O=c1cc(-c2nc3ccccc3[nH]2)c2ccc3ccccc3c2o1"
reported_result = 4.2

[[record]]
chemical_string = "O=c1cc(-c2nc3ccccc3[nH]2)c2cc(Br)ccc2o1"
reported_result = 4.8

[[record]]
chemical_string = "Cc1ccc2c(-c3nc4ccccc4[nH]3)cc(=O)oc2c1"
reported_result = 4.1

[[record]]
chemical_string = "COc1ccc2oc(=O)cc(-c3nc4ccccc4[nH]3)c2c1"
reported_result = 4

[[record]]
chemical_string = "O=C(O)c1cn(C2CC2)c2cc(N3CCNCC3)c(F)cc2c1=O"
reported_result = 7.5


Hey, just so you know, these numbers are from ChEMBL document CHEMBL5230129.
